# assay.procedure: Clearance in dog at 1 mg, iv administered as single dose measured after 0.083 to 24 hrs by LC-MS analysis
# Assay type: ADME, organism-based, Canis lupus familiaris
# assay.setup: in vivo
property.name: clearance

Lookup: Using known records, supply clearance for COc1cc2c(c(OC)n1)[C@]1(O)[C@H](O)[C@H](CN(C)C)[C@@H](c3ccccc3)[C@]1(c1ccc(C#N)cc1)O2
Found: < 12.4 mL/min/kg

* * *

# assay.procedure: AUC in iv dosed rat
# Format: ADME, organism-based
# assay.setup: in vivo
property.name: AUC (ng·h/mL)
I only need the number, in ng·h/mL, no unit after it.

Lookup: Output measured AUC for this item: COc1cc2c(c(OC)n1)[C@]1(O)[C@H](O)[C@H](CN(C)C)[C@@H](c3ccccc3)[C@]1(c1ccc(C#N)cc1)O2
Found: 390

Lookup: Return AUC (reported value) for this compound: COc1cncc2c1[C@]1(O)[C@H](O)[C@H](C(=O)N(C)C)[C@@H](c3ccccc3)[C@]1(c1ccc(C#N)cc1)O2
Found: 950

Lookup: Give the measured AUC for COc1nc(C#N)cc2c1[C@]1(O)[C@H](O)[C@H](CN(C)C)[C@@H](c3ccccc3)[C@]1(c1ccc(C#N)cc1)O2
Found: 730

Lookup: State its AUC: COc1cncc2c1[C@]1(O)[C@H](O)[C@H](CN(C)C)[C@@H](c3ccccc3)[C@]1(c1ccc(C#N)cc1)O2 (stereo in doubt; (-)-37)
Found: 440

* * *

Assign pIC50 to each entry below.
# tested.on: Eukaryotic initiation factor 4A-I (Homo sapiens, UniProt P60842)
# Sequence (P60842 whole entry): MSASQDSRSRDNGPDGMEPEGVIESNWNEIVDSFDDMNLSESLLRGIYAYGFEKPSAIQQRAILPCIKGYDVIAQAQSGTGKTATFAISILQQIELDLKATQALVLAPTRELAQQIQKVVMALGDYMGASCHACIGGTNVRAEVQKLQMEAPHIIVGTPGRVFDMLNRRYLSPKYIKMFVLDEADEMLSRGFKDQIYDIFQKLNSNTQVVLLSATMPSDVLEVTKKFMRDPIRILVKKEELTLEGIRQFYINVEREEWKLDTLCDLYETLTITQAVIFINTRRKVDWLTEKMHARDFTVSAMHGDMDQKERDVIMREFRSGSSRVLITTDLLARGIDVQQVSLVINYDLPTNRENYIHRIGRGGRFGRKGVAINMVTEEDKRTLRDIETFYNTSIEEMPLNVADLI
# assay.procedure: Inhibition of eIF4A1 in human MDA-MB-231 cells assessed as inhibition of cellular-translation incubated for 4 hrs by specific tandem sequence motif repeat CCGCCG in 5'- UTR containing luciferase reporter gene assay
# Assay type: cell-based
Remember the convention: pIC50 equals -log10 of concentration in molar.

Lookup: Given C[C@@H]1C[C@@H]([C@H](O)CC2CC(=O)NC(=O)C2)C(=O)[C@@H](C)C1 [CYCLOHEXIMIDE] , respond with its pIC50.
Found: 7.06

Lookup: Supply pIC50 value. Item: C[C@H]1C[C@@]2(O[C@H]3C[C@H]4[C@@H]5CC[C@H]6C[C@H](O)CC[C@]6(C)[C@H]5[C@@H](O)C[C@]4(C)[C@H]3[C@@]2(C)O)OC1(C)C
Found: 6.68

Lookup: Indicate the recorded pIC50 value for this compound: COc1cc2c(c(OC)n1)[C@]1(O)[C@H](O)[C@H](CN(C)C)[C@@H](c3ccccc3)[C@]1(c1ccc(C#N)cc1)O2
Found: 7.04

* * *

# assay.procedure: Protein binding in dog plasma
# Assay type: ADME, cell-free, Canis lupus familiaris
# assay.setup: read-out: PPB (converted)
property.name: fraction unbound
Reply with the value as a number alone.

Lookup: Please look at this molecule and report its fraction unbound: COc1cc2c(c(OC)n1)[C@]1(O)[C@H](O)[C@H](CN(C)C)[C@@H](c3ccccc3)[C@]1(c1ccc(C#N)cc1)O2
Found: 0.188

* * *

# assay.procedure: Efflux ratio in human Caco2 cells at 10 uM by LC/MS/MS analysis
# assay.setup: Caco-2
Please go through the items and note down their efflux ratio at 10 µM.
Just the number, please, no unit attached.

Lookup: Specify efflux ratio at 10 µM for COc1cncc2c1[C@]1(O)[C@H](O)[C@H](CN3CCC(F)(F)CC3)[C@@H](c3ccccc3)[C@]1(c1ccc(C#N)cc1)O2 and stop.
Found: 1.7

Lookup: Respond only with efflux ratio at 10 µM recorded for COc1cncc2c1[C@]1(O)[C@H](O)[C@H](CN(C)C(C)(C)C)[C@@H](c3ccccc3)[C@]1(c1ccc(C#N)cc1)O2
Found: 57

Lookup: Read the entry COc1cncc2c1[C@]1(O)[C@H](O)[C@H](CN3CC(F)(F)C3)[C@@H](c3ccccc3)[C@]1(c1ccc(C#N)cc1)O2 and write its reported efflux ratio at 10 µM.
Found: 5.7

Lookup: Quick one: give measured efflux ratio at 10 µM for COc1cncc2c1[C@]1(O)[C@H](O)[C@H](CN3CC4(COC4)C3)[C@@H](c3ccccc3)[C@]1(c1ccc(C#N)cc1)O2
Found: 41

Lookup: Please look at this compound and report its efflux ratio at 10 µM: COc1cncc2c1[C@]1(O)[C@H](O)[C@H](CN)[C@@H](c3ccccc3)[C@]1(c1ccc(C#N)cc1)O2 (racemic)
Found: 4

Lookup: For the compound COc1cncc2c1[C@]1(O)[C@H](O)[C@H](CN(C)CC(F)(F)F)[C@@H](c3ccccc3)[C@]1(c1ccc(C#N)cc1)O2 , give its reported efflux ratio at 10 µM.
Found: 1.3

Lookup: Specify measured efflux ratio at 10 µM for CCN(CC)C[C@H]1[C@@H](O)[C@@]2(O)c3c(OC)cncc3O[C@@]2(c2ccc(C#N)cc2)[C@@H]1c1ccccc1 .
Found: 35

Lookup: For the compound COc1cncc2c1[C@]1(O)[C@H](O)[C@H](CN3[C@@H]4CCC[C@H]3CC4)[C@@H](c3ccccc3)[C@]1(c1ccc(C#N)cc1)O2 , report efflux ratio at 10 µM.
Found: 35

Lookup: Let me know recorded efflux ratio at 10 µM for COc1cncc2c1[C@]1(O)[C@H](O)[C@H](CCN(C)C)[C@@H](c3ccccc3)[C@]1(c1ccc(C#N)cc1)O2 (racemic) , thanks.
Found: 27

Lookup: Name the recorded efflux ratio at 10 µM of the compound listed here: COc1cncc2c1[C@]1(O)[C@H](O)[C@H](CN3[C@@H]4CC[C@H]3COC4)[C@@H](c3ccccc3)[C@]1(c1ccc(C#N)cc1)O2
Found: 5.3

Lookup: Read off the recorded efflux ratio at 10 µM for COc1cncc2c1[C@]1(O)[C@H](O)[C@H](C(=O)N(C)C)[C@@H](c3ccccc3)[C@]1(c1ccc(C#N)cc1)O2
Found: 5

Lookup: Find the measured efflux ratio at 10 µM of COc1cncc2c1[C@]1(O)[C@H](O)[C@H](CN(C)CC(F)F)[C@@H](c3ccccc3)[C@]1(c1ccc(C#N)cc1)O2 and report it.
Found: 3.2

* * *

# tested.on: hERG (KCNH2) (Homo sapiens)
# Sequence (Q12809 whole entry): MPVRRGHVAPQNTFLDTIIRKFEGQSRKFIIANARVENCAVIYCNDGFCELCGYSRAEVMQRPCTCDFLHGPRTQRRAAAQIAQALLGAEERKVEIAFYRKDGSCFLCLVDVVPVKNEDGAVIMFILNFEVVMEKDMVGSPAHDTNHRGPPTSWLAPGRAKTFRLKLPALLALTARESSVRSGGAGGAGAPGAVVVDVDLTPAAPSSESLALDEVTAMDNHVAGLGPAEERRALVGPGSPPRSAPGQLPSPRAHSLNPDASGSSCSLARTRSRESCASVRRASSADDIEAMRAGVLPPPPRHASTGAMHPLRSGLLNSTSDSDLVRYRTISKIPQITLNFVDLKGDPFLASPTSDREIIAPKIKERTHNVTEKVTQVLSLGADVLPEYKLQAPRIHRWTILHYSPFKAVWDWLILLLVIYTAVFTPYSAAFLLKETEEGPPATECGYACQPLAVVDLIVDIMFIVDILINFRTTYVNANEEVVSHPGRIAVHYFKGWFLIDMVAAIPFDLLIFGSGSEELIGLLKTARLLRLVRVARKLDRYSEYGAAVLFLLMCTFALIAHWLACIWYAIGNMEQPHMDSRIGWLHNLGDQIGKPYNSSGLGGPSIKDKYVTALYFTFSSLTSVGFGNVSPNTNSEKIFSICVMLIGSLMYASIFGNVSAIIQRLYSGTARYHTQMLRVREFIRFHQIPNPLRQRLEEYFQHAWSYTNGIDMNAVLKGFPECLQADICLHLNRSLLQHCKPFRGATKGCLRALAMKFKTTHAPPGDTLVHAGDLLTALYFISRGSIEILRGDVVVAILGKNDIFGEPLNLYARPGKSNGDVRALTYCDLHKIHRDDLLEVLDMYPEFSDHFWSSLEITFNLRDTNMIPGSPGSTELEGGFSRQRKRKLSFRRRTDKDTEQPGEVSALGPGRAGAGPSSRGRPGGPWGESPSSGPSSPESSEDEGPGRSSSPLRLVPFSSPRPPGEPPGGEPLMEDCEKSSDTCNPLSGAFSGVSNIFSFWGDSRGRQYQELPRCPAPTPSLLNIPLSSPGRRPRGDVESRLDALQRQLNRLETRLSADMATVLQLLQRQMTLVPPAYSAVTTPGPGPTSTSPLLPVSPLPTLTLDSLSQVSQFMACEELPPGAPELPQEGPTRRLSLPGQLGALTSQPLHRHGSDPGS
# assay.procedure: Inhibition of human ERG at 10 uM by patch-clamp assay relative to control
property.name: inhibition at 10 µM

Lookup: Check hERG (KCNH2) (Homo sapiens) data and give inhibition at 10 µM for COc1cncc2c1[C@]1(O)[C@H](O)[C@H](CN3CC(F)(F)C3)[C@@H](c3ccccc3)[C@]1(c1ccc(C#N)cc1)O2 .
Found: < 10%

Lookup: Fill in: inhibition at 10 µM on hERG (KCNH2) (Homo sapiens), entry COc1cncc2c1[C@]1(O)[C@H](O)[C@H](CN(C)CC(F)F)[C@@H](c3ccccc3)[C@]1(c1ccc(C#N)cc1)O2
Found: 11%

Lookup: Please report inhibition at 10 µM with hERG (KCNH2) (Homo sapiens) for item CNC[C@H]1[C@@H](O)[C@@]2(O)c3c(OC)cncc3O[C@@]2(c2ccc(C#N)cc2)[C@@H]1c1ccccc1 (racemic) .
Found: < 10%

Lookup: Name the recorded inhibition at 10 µM of COc1cncc2c1[C@]1(O)[C@H](O)[C@H](CN3CCC(F)(F)CC3)[C@@H](c3ccccc3)[C@]1(c1ccc(C#N)cc1)O2 , assay system hERG (KCNH2) (Homo sapiens).
Found: 30%

* * *

# assay.procedure: Apparent permeability from apical to basolateral side in human Caco2 cells at 10 uM by LC/MS/MS analysis
# assay.setup: Caco-2
property.name: Papp A→B at 10 µM (×10⁻⁶ cm/s)
Numbers only; they are read as ×10⁻⁶ cm/s.

Lookup: Provide only the value of recorded Papp A→B at 10 µM for COc1cncc2c1[C@]1(O)[C@H](O)[C@H](CN3CC(F)(F)C3)[C@@H](c3ccccc3)[C@]1(c1ccc(C#N)cc1)O2
Found: 1.9

Lookup: Give Papp A→B at 10 µM for COc1cncc2c1[C@]1(O)[C@H](O)[C@H](CN)[C@@H](c3ccccc3)[C@]1(c1ccc(C#N)cc1)O2 (racemic)
Found: 0.11

Lookup: Give a short answer stating reported Papp A→B at 10 µM for COc1cc2c(c(OC)n1)[C@]1(O)[C@H](O)[C@H](CN(C)C)[C@@H](c3ccccc3)[C@]1(c1ccc(C#N)cc1)O2 [ZOTATIFIN] .
Found: 2.5

Lookup: Determine from records and report Papp A→B at 10 µM for N#Cc1ccc([C@@]23Oc4cc(Cl)cnc4[C@]2(O)[C@H](O)[C@H](C(N)=O)[C@H]3c2ccccc2)cc1
Found: 0.5

Lookup: Retrieve Papp A→B at 10 µM measured for CN(C)C(=O)[C@H]1[C@@H](O)[C@@]2(O)c3ncc(Cl)cc3O[C@@]2(c2ccc(C#N)cc2)[C@@H]1c1ccccc1 and print it.
Found: 1.8

Lookup: Using the record for COc1cncc2c1[C@]1(O)[C@H](O)[C@H](CN3[C@@H]4CC[C@H]3COC4)[C@@H](c3ccccc3)[C@]1(c1ccc(C#N)cc1)O2 , state its measured Papp A→B at 10 µM.
Found: 1.9

Lookup: Return Papp A→B at 10 µM (reported value) for this compound: COc1cncc2c1[C@]1(O)[C@H](O)[C@H](CN(C)CC(F)F)[C@@H](c3ccccc3)[C@]1(c1ccc(C#N)cc1)O2
Found: 2.6
